System: MOLM14;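 also: after 48 h exposure read by CellTiter-Glo luminescence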
Method: cell viability relative to vehicle control; higher = less cytotoxic
Particulars: 10 µM; SRSF2 genotype: SRSF2 P95H/wt
Structures can show the parent of a compound that is named as a salt.

- Molecule: "CCCCCC1=C(C)CCC1=O [Dihydrojasmone]"
  cell viability (%): 107
- Molecule: "O=C(NOCC(O)CO)c1cc(Br)c(F)c(F)c1Nc1ccc(I)cc1F (stereo unspecified)"
  cell viability (%): 50.1
- Molecule: "O=c1cc(-c2ccc(O)cc2)oc2cc(O)c(O)c(O)c12"
  cell viability (%): 107
- Molecule: "COc1nc(N)nc2c1ncn2[C@@H]1O[C@H](CO)[C@@H](O)[C@@H]1O"
  cell viability (%): 90.7
- Molecule: "Cc1c(C(=O)Nc2ccc(N3CCC(N4CCOCC4)CC3)c(C#N)c2)cnn1-c1ccc(Cl)cc1"
  cell viability (%): 11
- Molecule: "CCCN(CCC)CCc1cccc2c1CC(=O)N2 [Ropinirole HCl]"
  cell viability (%): 103
- Molecule: "Nc1nc2ccc(OC(F)(F)F)cc2s1 [Riluzole (Rilutek)]"
  cell viability (%): 81.8
- Molecule: "Cc1ncc(Cl)cc1NCc1ccc(C(=O)N[C@@H](CC2CCCC2)C(=O)NC2CC2)s1"
  cell viability (%): 65
- Molecule: "Nc1nc(=O)n([C@@H]2CS[C@H](CO)O2)cc1F"
  cell viability (%): 104
- Molecule: "Cc1[nH]c(/C=C2\\C(=O)Nc3ccccc32)c(C)c1CCC(=O)O [Orantinib (TSU-68, SU6668)]"
  cell viability (%): 82
- Molecule: "CC(C)n1c([C@H](C)Nc2ncnc(N)c2C#N)cc2cccc(-c3ccc(=O)n(C)c3)c2c1=O"
  cell viability (%): 20.9
- Molecule: "O=C1c2c(O)cc(O)cc2O[C@H](c2cc(O)c(O)c(O)c2)[C@H]1O [Dihydromyricetin (Ampeloptin)]"
  cell viability (%): 110
- Molecule: "O=P(O)(O)Oc1cccc2ccccc12 [1-Naphthyl phosphate potassium salt]"
  cell viability (%): 91.7
- Molecule: "CCCNC(C)C(=O)Nc1c(C)csc1C(=O)OC (stereo unspecified) [Articaine HCl]"
  cell viability (%): 106
- Molecule: "COc1ccc(-c2cc(=O)c3c(O)cc(O)cc3o2)cc1O"
  cell viability (%): 50.9
- Molecule: "CC(C)Cn1cnc2c(N)nc3ccccc3c21"
  cell viability (%): 78.1
- Molecule: "CC(C)[C@H](C(=O)Nc1ccc(C(=O)NO)cc1)c1ccccc1"
  cell viability (%): 0.73
- Molecule: "CC(C)=CCCC(C)=CCCC(C)=CCCC(C)=CCC1=C(C)C(=O)c2ccccc2C1=O"
  cell viability (%): 87.7
- Molecule: "COc1cc(C(=O)NC2CCCNC2)cc(OC)c1OC (stereo unspecified) [Troxipide]"
  cell viability (%): 103
- Molecule: "O=C(O)CCCC[C@@H]1SC[C@@H]2NC(=O)N[C@@H]21"
  cell viability (%): 102
- Molecule: "CN[C@@H](C)C(=O)N[C@H](C(=O)N1CCC[C@H]1c1nc(C(=O)c2ccc(F)cc2)cs1)C1CCCCC1"
  cell viability (%): 58.3
- Molecule: "CC(=O)OC1CC2CCC1(C)C2(C)C (stereo unspecified) [Bornyl acetate]"
  cell viability (%): 98.8
- Molecule: "Cc1cc(NS(=O)(=O)c2ccc(N)cc2)no1 [Sulfamethoxazole sodium]"
  cell viability (%): 102
- Molecule: "O=C(CSc1nc2c(c(=O)n1-c1ccccc1)SCC2)Nc1ccc(-c2ccccc2)cn1"
  cell viability (%): 100
- Molecule: "CC(=O)S[C@@H]1CC2=CC(=O)CC[C@]2(C)[C@H]2CC[C@@]3(C)[C@@H](CC[C@@]34CCC(=O)O4)[C@H]12"
  cell viability (%): 90.1
- Molecule: "CC1(C)S[C@@H]2[C@H](NC(=O)[C@H](NC(=O)N3CCN(S(C)(=O)=O)C3=O)c3ccccc3)C(=O)N2[C@H]1C(=O)O [Mezlocillin Sodium]"
  cell viability (%): 100
- Molecule: "COCCOc1nc(-c2ccc(Cl)c(Cl)c2)n(-c2ccc(NC(=O)CCl)cc2)n1"
  cell viability (%): 0.48
- Molecule: "O=S(=O)(NCCNCC=Cc1ccc(Br)cc1)c1cccc2cnccc12"
  cell viability (%): 43.2
- Molecule: "Cc1cc(C)c(/C=C2\\C(=O)Nc3ccccc32)[nH]1 [Semaxanib (SU5416)]"
  cell viability (%): 20
- Molecule: "O=c1[nH]ccc2c(S(=O)(=O)N3CCCNCC3)cccc12 [Hydroxyfasudil (HA-1100)HCl]"
  cell viability (%): 95.6
- Molecule: "NC(=O)c1cccc(-c2cccc(OC(=O)NC3CCCCC3)c2)c1"
  cell viability (%): 99.5
- Molecule: "O=c1c(-c2ccc(O)cc2)coc2cc(O[C@@H]3O[C@H](CO)[C@@H](O)[C@H](O)[C@H]3O)ccc12"
  cell viability (%): 98
- Molecule: "O=C(c1ccccc1)c1ccc2n1CCC2C(=O)O (stereo unspecified)"
  cell viability (%): 98.2
- Molecule: "Oc1c(Cl)cc(Cl)c2cccnc12"
  cell viability (%): 55.5
- Molecule: "O=C1C(c2c(O)[nH]c3ccccc23)=Nc2ccccc21"
  cell viability (%): 87.5
- Molecule: "CCn1cc(C(=O)O)c(=O)c2cc(F)c(N3CCNCC3)nc21"
  cell viability (%): 105
